Target: UniProt P50406
Sequence (P50406 whole entry): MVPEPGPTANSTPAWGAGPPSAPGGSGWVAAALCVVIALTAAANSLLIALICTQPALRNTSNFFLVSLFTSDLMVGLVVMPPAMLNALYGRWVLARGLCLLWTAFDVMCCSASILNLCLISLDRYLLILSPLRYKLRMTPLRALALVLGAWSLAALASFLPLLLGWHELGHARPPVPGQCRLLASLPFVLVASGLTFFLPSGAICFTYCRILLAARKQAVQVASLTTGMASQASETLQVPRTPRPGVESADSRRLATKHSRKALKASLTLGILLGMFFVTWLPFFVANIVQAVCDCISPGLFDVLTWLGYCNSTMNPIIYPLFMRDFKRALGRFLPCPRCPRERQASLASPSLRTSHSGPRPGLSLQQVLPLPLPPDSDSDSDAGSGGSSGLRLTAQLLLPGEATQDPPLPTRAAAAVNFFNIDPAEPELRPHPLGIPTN
Experiment: Displacement of [3H]-LSD from recombinant human 5-HT6 receptor expressed in HEK293 cells after 60 mins
reported metric: Ki (nM)

Example results:
Please report the recorded Ki for "CN1CCN(Cc2cn(S(=O)(=O)c3ccccc3Br)c3cccc(Cl)c23)CC1" .
23.5

Query (compound): "CN1CCN(Cc2cn(S(=O)(=O)c3ccc(Br)cc3)c3ccccc23)CC1" ; field requested: Ki
2.13

Request the reported Ki associated with "O=S(=O)(c1ccccc1Br)n1cc(CN2CCNCC2)c2ccccc21"
4.5

Item "COc1ccc2c(CN3CCN(C)CC3)cn(S(=O)(=O)c3ccc(F)cc3)c2c1" has what recorded Ki?
239

Quick one: Ki of "CCN1CCN(Cc2cn(S(=O)(=O)c3ccc(F)cc3)c3ccc(OC)cc23)CC1" ?
20

Entry "CN1CCN(Cc2cn(S(=O)(=O)c3cccc4ccccc34)c3ccccc23)CC1" : reported Ki = ?
11.5

Would you kindly share the measured Ki for "CCN1CCN(Cc2cn(S(=O)(=O)c3ccc(C(C)C)cc3)c3ccc(OC)cc23)CC1" ?
1.7

Suppose we examine the compound "CN1CCN(Cc2cn(S(=O)(=O)c3ccccc3)c3ncccc23)CC1" ; what Ki value has been reported?
277

1: CC(=O)N1CCN(Cc2cn(S(=O)(=O)c3ccccc3Br)c3ccccc23)CC1
2: CN1CCN(Cc2cn(S(=O)(=O)c3ccc(F)cc3)c3ccccc23)CC1
3: CN1CCN(Cc2cn(S(=O)(=O)c3cccc(Cl)c3)c3ccccc23)CC1
4: Cc1ccc(C)c(S(=O)(=O)n2cc(CN3CCN(C)CC3)c3ccccc32)c1
5: COc1ccc2c(CN3CCN(C)CC3)cn(S(=O)(=O)c3ccc(C(C)C)cc3)c2c1
Put the entries in order of Ki, starting with the largest number. Output the labels ranked as instructed.
1, 4, 5, 3, 2

A: COc1ccc2c(c1)c(CN1CCNCC1)cn2S(=O)(=O)c1ccc(C(C)C)cc1
B: CN1CCN(Cc2cn(S(=O)(=O)c3cccc(F)c3)c3ccccc23)CC1
Given A and given B , which shows the smaller recorded Ki? Mark your answer with the label of the selected entry.
A

P: CN1CCN(Cc2cn(S(=O)(=O)c3ccccc3F)c3ccccc23)CC1
Q: CN1CCN(Cc2cn(S(=O)(=O)c3ccccc3)c3cc(Cl)ccc23)CC1
Which one would you say has the larger Ki value: P , or Q ? Response format: the label of the selected entry.
Q
(Q: 35.7 nM, P: 7.8 nM)
